target: dopamine D-2 receptor (Rattus norvegicus, UniProt P61169); construct: from tissue; host or cells: limbic brain tissue, homogenate; assay: 3H-spiroperidol (D2 Spiper.) binding, homogenized limbic brain tissue
Please respond with reported IC50 for every item in the list.
Field: numeric (nM). Do not append units.

Task item: Quick check: IC50 on dopamine D-2 receptor (Rattus norvegicus, UniProt P61169), item c1csc(CNCCOc2cccc3[nH]ncc23)c1 ?
Reply: 1090

Task item: Value wanted: IC50 (dopamine D-2 receptor (Rattus norvegicus, UniProt P61169)) of entry c1ccc(CNCCOc2cccc3[nH]ncc23)cc1
Reply: 333

* * *

biological target: dopamine autoreceptor (D2) (Rattus norvegicus); construct: homogenized rat striatal brain tissue; from tissue; host or cells: rat striatum, homogenate; assay: 3H-quinpirole (D2 Quin.) binding, homogenized rat striatal brain tissue, affinity for dopamine autoreceptor
Sequence (P61169 whole entry): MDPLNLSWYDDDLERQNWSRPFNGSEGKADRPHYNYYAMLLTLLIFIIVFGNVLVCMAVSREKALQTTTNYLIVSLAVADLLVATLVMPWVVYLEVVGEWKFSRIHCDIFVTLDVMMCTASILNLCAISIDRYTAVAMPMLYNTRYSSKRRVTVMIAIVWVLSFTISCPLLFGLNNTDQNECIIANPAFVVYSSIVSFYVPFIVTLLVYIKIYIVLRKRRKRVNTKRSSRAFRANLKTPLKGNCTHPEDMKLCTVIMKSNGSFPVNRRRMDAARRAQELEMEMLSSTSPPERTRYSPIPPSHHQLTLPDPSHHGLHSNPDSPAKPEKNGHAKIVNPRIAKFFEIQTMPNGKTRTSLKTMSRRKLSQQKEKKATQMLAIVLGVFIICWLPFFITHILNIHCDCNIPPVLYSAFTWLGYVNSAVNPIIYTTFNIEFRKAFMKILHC
value.type: IC50 (nM)
Provide the reading as a plain figure in nM.

Task item: Which IC50 value belongs to c1cc(OCCNCc2ccsc2)c2cn[nH]c2c1 ?
Reply: 2.78

Task item: Given the compound c1ccc(CNCCOc2cccc3[nH]ncc23)cc1 , what is its reported IC50?
Reply: 2.23

Task item: // lookup IC50 for c1csc(CNCCOc2cccc3[nH]ncc23)c1
Reply: 4.3
